These data points were gathered from patent EP4786492A1.

# test target: mouse DLL3 on CHO-K1-mDLL3 cells (mouse) (UniProt O88516)
# Sequence (O88516 other isoform, or with tags, fused parts or gaps limits assumed): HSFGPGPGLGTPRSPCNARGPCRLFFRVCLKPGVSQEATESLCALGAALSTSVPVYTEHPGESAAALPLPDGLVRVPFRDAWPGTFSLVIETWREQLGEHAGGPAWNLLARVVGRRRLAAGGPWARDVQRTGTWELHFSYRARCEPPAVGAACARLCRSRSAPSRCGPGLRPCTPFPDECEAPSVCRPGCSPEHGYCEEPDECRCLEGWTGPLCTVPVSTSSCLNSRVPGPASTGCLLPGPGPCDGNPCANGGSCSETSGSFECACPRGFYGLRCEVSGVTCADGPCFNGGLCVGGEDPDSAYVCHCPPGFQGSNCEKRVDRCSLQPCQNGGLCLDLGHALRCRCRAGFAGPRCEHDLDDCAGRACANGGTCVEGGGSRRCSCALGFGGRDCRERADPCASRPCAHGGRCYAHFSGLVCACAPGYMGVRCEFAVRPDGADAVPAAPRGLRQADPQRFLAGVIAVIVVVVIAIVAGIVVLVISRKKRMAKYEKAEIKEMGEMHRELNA
# procedure text: FACS, CHO-K1-mDLL3 cells, 0.00128 nM antibody
MFI values by entry

[
  {
    "binder": "Hab009VL1aVH1-hFc (scFv, part only; not given: scFv linker and human IgG1 Fc, V domains shown, not shown: another chain or arm of the molecule; a dimerising Fc or GST; small tags and cut ends) VL: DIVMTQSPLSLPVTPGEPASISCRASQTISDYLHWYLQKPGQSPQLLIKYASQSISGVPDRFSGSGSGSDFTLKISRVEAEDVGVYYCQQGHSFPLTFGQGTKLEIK VH: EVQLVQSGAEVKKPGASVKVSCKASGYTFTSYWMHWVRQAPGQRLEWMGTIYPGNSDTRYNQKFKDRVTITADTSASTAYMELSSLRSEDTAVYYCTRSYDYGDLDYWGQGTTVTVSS",
    "unit of measure": "MFI",
    "MFI": 86
  },
  {
    "binder": "Hab009VL2aVH1-hFc (scFv, part only; not given: VL-VH linker and human IgG1 Fc, V domains shown, not shown: another chain or arm of the molecule; a dimerising Fc or GST; small tags and cut ends) VL: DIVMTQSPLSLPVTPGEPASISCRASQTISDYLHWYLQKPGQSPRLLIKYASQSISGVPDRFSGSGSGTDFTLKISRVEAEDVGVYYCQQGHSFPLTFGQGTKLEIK VH: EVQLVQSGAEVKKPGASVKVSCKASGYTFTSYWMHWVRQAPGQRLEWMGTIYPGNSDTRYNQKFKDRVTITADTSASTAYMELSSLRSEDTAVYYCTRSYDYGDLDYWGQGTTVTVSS",
    "unit of measure": "MFI",
    "MFI": 172
  },
  {
    "binder": "Hab015VL4VH6a-hFc (scFv, part only; not given: scFv linker and human IgG1 Fc, V domains shown, not shown: another chain or arm of the molecule; a dimerising Fc or GST; small tags and cut ends) VL: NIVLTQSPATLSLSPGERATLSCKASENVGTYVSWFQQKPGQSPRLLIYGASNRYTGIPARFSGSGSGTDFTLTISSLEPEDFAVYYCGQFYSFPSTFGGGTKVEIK VH: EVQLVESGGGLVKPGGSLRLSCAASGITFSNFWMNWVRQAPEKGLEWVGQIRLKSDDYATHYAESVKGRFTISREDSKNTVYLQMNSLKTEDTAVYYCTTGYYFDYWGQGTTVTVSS",
    "unit of measure": "MFI",
    "MFI": 118
  }
]
